These measurements were taken from patent EP0792271B1.

Known pIC50 of a selection of compounds
Target: topoisomerase II isolated from Giardia lamblia
Test: Topoisomerase II inhibition (Giardia lamblia enzyme)
Assay type: biochemical
Settings: 50% inhibition of topoisomerase II isolated from Giardia lamblia; read-out: IC50 Topoisomerase Activity II G.l.
pIC50: −log10 of the molar value.

{"smiles": "Cc1ccc(Oc2cc(-c3ccc(C4=NCCCN4)cc3)oc2-c2ccc(C3=NCCCN3)cc2)cc1", "pIC50": "5.52 to 6.00"}
{"smiles": "c1cc(-c2ccc(-c3ccc(C4=NCCCN4)cc3)o2)ccc1C1=NCCCN1", "pIC50": "6.00 to 6.30"}
{"smiles": "CC(C)NC(=N)c1ccc(-c2ccc(-c3ccc(C(=N)NC(C)C)cc3)o2)cc1", "pIC50": "6.00 to 6.30"}

Field: next compound
# input compound: Cc1cc(-c2ccc(C(=N)NC(C)C)cc2)oc1-c1ccc(C(=N)NC(C)C)cc1 ; wanted: its pIC50 5.70 to 6.00
